system: Saccharomyces cerevisiae; test: protein stability index of tFT-peptide fusion (C-terminal peptide) (PSI (0-1 scale)); higher = more stable (slower turnover); conditions: genetic background: wild type; temperature: 30 C
Kindly return fulfilled if reported protein stability index is no lower than 0.6; return not fulfilled if it is lower.

Reference set (5 entries):
# Monomer sequence, Target of assay, Qualitative label
measured = [
    ("RNERNAKAKNEK", "Saccharomyces cerevisiae", "fulfilled"),
    ("AFSYRAVIALLP", "Saccharomyces cerevisiae", "fulfilled"),
    ("CFSYLLIVLLFP", "Saccharomyces cerevisiae", "not fulfilled"),
    ("RVYKTAYNRRTQ", "Saccharomyces cerevisiae", "fulfilled"),
    ("FRSHGHLSQNSY", "Saccharomyces cerevisiae", "fulfilled"),
]

### Prompt // inclusive: protein stability index at least 0.6? input: RESTKNETSGKK
### Response fulfilled

### Prompt Next sequence up: WSVVRGGGCGAR
### Response fulfilled

### Prompt Next sequence up: HATFLPGLLTIS
### Response not fulfilled

### Prompt Next sequence up: KHTKRIRLYKTK
### Response fulfilled

---

system: Saccharomyces cerevisiae; test: protein stability index of tFT-peptide fusion (C-terminal peptide) (PSI (0-1 scale)); higher = more stable (slower turnover); conditions: genetic background: wild type; temperature: 30 C
Kindly return TRUE if reported protein stability index is no lower than 0.7; return FALSE if it is lower.

Reference set (4 entries):
# Monomer sequence, Target of assay, Qualitative label
measured = [
    ("LNSCLIVDEPDI", "Saccharomyces cerevisiae", "TRUE"),
    ("LFGFLCVVMCCG", "Saccharomyces cerevisiae", "FALSE"),
    ("PLPPPNPPLPVF", "Saccharomyces cerevisiae", "FALSE"),
    ("SIFRVKQGKTNK", "Saccharomyces cerevisiae", "FALSE"),
]

# evaluate next
### Prompt // inclusive: protein stability index at least 0.7? input: RKQNVASESERK
### Response TRUE

---

system: Saccharomyces cerevisiae; assay: protein stability index of tFT-peptide fusion in deletion strain of DAS1 (PSI (0-1 scale)); higher = more stable (slower turnover)
Property: protein stability index
Field format: numeric only.

Recorded results for 8 sequences are shown here.
# Monomer sequence, Target of assay, protein stability index
records = [
    ("RLIDPLPVQFLN", "Saccharomyces cerevisiae", 0.62),
    ("PHKRNHLIKLLN", "Saccharomyces cerevisiae", 0.694),
    ("LVVYLSQVACIN", "Saccharomyces cerevisiae", 0.0854),
    ("VRGAVDGWRLVG", "Saccharomyces cerevisiae", 0.67),
    ("KKHNKGQKQKIN", "Saccharomyces cerevisiae", 0.645),
    ("FSMRWTFRYAVN", "Saccharomyces cerevisiae", 0.585),
    ("ARWRVGLWRQAS", "Saccharomyces cerevisiae", 0.678),
    ("FSMRWVFRYWVN", "Saccharomyces cerevisiae", 0.495),
]

### Prompt Dear colleague, I am looking for the recorded protein stability index of the following sequence: LVVYLSCVAPIN
### Response 0.449

### Prompt Next sequence up: VRGQVGGWRLVG
### Response 0.677

### Prompt Next sequence up: PRKRNHLIKLLN
### Response 0.633

### Prompt Next sequence up: KKHKKMQKQKIN
### Response 0.571

### Prompt Next sequence up: ARWRVGLWRGAG
### Response 0.64

### Prompt Next sequence up: VRGAVGGWWLVG
### Response 0.669

### Prompt Next sequence up: PDKRNHLFKLLN
### Response 0.609

### Prompt Next sequence up: PDKHNHLIKLLN
### Response 0.622

---

tested on: Saccharomyces cerevisiae; test: protein stability index of tFT-peptide fusion (C-terminal peptide) (PSI (0-1 scale)); higher = more stable (slower turnover); details: genetic background: cdc53-1; temperature: 37 C
Listed below: protein stability index values for each entry.
Field format: numeric only.

Recorded results for 4 sequences are shown here.
# Monomer sequence, Target of assay, Observed result
measured = [
    ("NRFRLFRLNFSV", "Saccharomyces cerevisiae", 0.724),
    ("SFFFSFFPYFFC", "Saccharomyces cerevisiae", 0.675),
    ("VFLFSLCIRLSR", "Saccharomyces cerevisiae", 0.214),
    ("ICSRCLVTVLSC", "Saccharomyces cerevisiae", 0.445),
]

Next:
### Prompt Query the reported protein stability index for Saccharomyces cerevisiae; item: YMNLYKNVISVT
### Response 0.47

---

system: Saccharomyces cerevisiae; test: protein stability index of tFT-peptide fusion in wild type (PSI (0-1 scale)); higher = more stable (slower turnover); details: genetic background: wild type
Kindly return True if reported protein stability index is no lower than 0.3; return False if it is lower.

Reference set (6 entries):
# Monomer sequence, Qualitative label
data = [
    ("CDSCGYKFRTNN", "False"),
    ("AITLPMCPLILR", "False"),
    ("AITLPMTPLLLR", "False"),
    ("PDKRNHLIKALN", "False"),
    ("VRGAVGGWRLVGW", "True"),
    ("FSQRWTFRYWVN", "False"),
]

### Prompt // inclusive: protein stability index at least 0.3? input: RLIQPLPVQFSN
### Response True

### Prompt Next sequence up: CIVSLPILLFFR
### Response False

---

tested on: Saccharomyces cerevisiae; experiment: protein stability index of tFT-peptide fusion (C-terminal peptide) (PSI (0-1 scale)); higher = more stable (slower turnover); conditions: genetic background: wild type; temperature: 30 C
Property: protein stability index
Field format: numeric only.

Recorded results for 2 sequences are shown here.
# Monomer sequence, Target of assay, protein stability index
records = [
    ("QTINTKPLYIKN [YGR290W C-terminal 12 aa]", "Saccharomyces cerevisiae", 0.665),
    ("GEEKKHLKMASP [MDE1 C-terminal 12 aa]", "Saccharomyces cerevisiae", 0.704),
]

### Prompt Dear colleague, I am looking for the recorded protein stability index of the following sequence: TFQKAQVEAEWV [TOA1 C-terminal 12 aa]
### Response 0.692

### Prompt Next sequence up: IATIENKFDFEI [YCR099C C-terminal 12 aa]
### Response 0.694

### Prompt Next sequence up: RYIRHLQQNVST [PHO4 C-terminal 12 aa]
### Response 0.683

### Prompt Next sequence up: QPDDKTKGILDR [ERV41 C-terminal 12 aa]
### Response 0.682

### Prompt Next sequence up: FAKLAAIPCSNA [YMR265C C-terminal 12 aa]
### Response 0.566

### Prompt Next sequence up: TGNGPNLDNLKY [ARA1 C-terminal 12 aa]
### Response 0.641

### Prompt Next sequence up: AVFYIFETLSAL [ORT1 C-terminal 12 aa]
### Response 0.654

### Prompt Next sequence up: EETEKKLKNLKL [YRB30 C-terminal 12 aa]
### Response 0.684

### Prompt Next sequence up: SEKIYRRSLFKQ [YKL165C-A C-terminal 12 aa]
### Response 0.686

### Prompt Next sequence up: ICFREFFDRVET [YJL077W-B C-terminal 12 aa]
### Response 0.673

---

test system: Saccharomyces cerevisiae; assay: protein stability index of tFT-peptide fusion (C-terminal peptide) (PSI (0-1 scale)); higher = more stable (slower turnover); conditions: genetic background: wild type; temperature: 30 C
Listed below: protein stability index values for each entry.
Field format: numeric only.

Recorded results for 6 sequences are shown here.
# Monomer sequence, protein stability index
rows = [
    ("RLRPGGHPCVFF", 0.66),
    ("CVKKERCDSCRV", 0.715),
    ("SPFLPAHPPPTA", 0.714),
    ("QKGGGGEVGAEG", 0.699),
    ("RGGGGRGFAGRK", 0.608),
    ("AYACSILRCKSS", 0.34),
]

### Prompt Query the reported protein stability index for Saccharomyces cerevisiae; item: GGLVTSGGWRCA
### Response 0.71

### Prompt Next sequence up: ETCTRHHPRHNS
### Response 0.687

### Prompt Next sequence up: KKKKNKKKTKKT
### Response 0.784

### Prompt Next sequence up: CLSCLFFRVFAD
### Response 0.573

### Prompt Next sequence up: WYLRSFVVSTLQ
### Response 0.533

### Prompt Next sequence up: FGGNISIPRSCD
### Response 0.723

### Prompt Next sequence up: FPRQFVYLPLLF
### Response 0.487

### Prompt Next sequence up: LLPFDTYPPTSP
### Response 0.695

### Prompt Next sequence up: NPLDRQNCTCGE
### Response 0.656

### Prompt Next sequence up: PPILLPPPDASH
### Response 0.702

### Prompt Next sequence up: KNQRTLKSPQEV
### Response 0.639

### Prompt Next sequence up: DGDIIVVQINKL
### Response 0.647

### Prompt Next sequence up: SGARDLVILTPW
### Response 0.713

### Prompt Next sequence up: PSGGRGSRWWGV
### Response 0.735

### Prompt Next sequence up: ATHEEGRVRCGV
### Response 0.709
